Source: patent US11524961B2

Listed here: items and their measured IC50.
target: JAK2 (Homo sapiens (Human)); assay: JAK2 enzyme activity inhibition (LANCE Ultra kinase assay)
Sequence (O60674 whole entry): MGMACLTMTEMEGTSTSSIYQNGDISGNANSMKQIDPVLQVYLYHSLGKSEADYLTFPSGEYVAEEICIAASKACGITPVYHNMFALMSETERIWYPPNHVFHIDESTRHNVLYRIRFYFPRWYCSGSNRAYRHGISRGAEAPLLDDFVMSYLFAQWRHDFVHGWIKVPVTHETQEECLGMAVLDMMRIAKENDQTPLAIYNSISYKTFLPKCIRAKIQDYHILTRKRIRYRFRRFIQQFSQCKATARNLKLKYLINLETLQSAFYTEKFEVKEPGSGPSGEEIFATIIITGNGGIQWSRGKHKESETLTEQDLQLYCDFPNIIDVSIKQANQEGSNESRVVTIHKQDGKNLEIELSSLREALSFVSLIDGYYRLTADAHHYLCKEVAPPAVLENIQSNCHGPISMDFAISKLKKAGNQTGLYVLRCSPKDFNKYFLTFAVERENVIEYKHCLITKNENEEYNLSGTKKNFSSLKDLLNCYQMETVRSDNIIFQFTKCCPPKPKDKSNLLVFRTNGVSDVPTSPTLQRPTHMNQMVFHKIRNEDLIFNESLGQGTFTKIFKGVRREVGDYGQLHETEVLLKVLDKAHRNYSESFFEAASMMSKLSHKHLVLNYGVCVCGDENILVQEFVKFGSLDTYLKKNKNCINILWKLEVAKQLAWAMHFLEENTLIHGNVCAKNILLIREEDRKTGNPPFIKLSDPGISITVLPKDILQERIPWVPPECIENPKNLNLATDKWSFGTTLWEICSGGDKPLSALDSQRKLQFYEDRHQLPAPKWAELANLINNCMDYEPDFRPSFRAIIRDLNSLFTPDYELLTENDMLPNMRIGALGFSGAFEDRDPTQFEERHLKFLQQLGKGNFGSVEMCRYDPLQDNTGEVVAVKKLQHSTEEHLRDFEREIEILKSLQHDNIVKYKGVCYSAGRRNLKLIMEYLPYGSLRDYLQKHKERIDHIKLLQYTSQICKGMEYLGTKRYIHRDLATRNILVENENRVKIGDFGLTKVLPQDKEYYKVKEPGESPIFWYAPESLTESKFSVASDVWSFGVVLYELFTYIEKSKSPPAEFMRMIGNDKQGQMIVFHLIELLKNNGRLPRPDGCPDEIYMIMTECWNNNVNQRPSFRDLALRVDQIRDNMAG

- compound: "N#CCC1(n2cc(-c3ncnc4[nH]ccc34)cn2)CN(S(=N)(=O)C2CC2)C1 (stereo not drawn) [LW104-E]"
  studyTarget: "JAK2 (Homo sapiens (Human))"
  IC50: "0.1 to 10 nM"
- compound: "CN=S(C)(=O)N1CC(CC#N)(n2cc(-c3ncnc4[nH]ccc34)cn2)C1 (stereo not drawn) [LW104-F]"
  studyTarget: "JAK2 (Homo sapiens (Human))"
  IC50: "0.1 to 10 nM"
- compound: "CCS(=O)(=NC)N1CC(CC#N)(n2cc(-c3ncnc4[nH]ccc34)cn2)C1 (stereo not drawn) [LW104-P]"
  studyTarget: "JAK2 (Homo sapiens (Human))"
  IC50: "10 to 100 nM"
